- Test system: RAW-Dual (murine macrophage reporter line)
- assayProcedure: NF-kB reporter (SEAP) activity fold change vs agonist alone; higher = enhanced NF-kB activity
- appliedConditions: modulator concentration 10 µM; agonist: CpG ODN 1826 0.5 ug/mL
Given measured NF-kB reporter, output true (1) if it is greater than or equal to 1 and false (0) if not.

compound	classLabel
COc1ccc2c(c1O)-c1c(OC)c(OC)cc3c1C(C2)N(C)CC3 (stereo unspecified)	false (0)
Cc1ccc(C)c2sc(N3CCN(C)CC3)nc12.Cl	false (0)
COc1cc(C2c3cc4c(cc3C(O)C3COC(=O)C23)OCO4)cc(OC)c1OC (stereo unspecified)	true (1)
O=C(CCCN1CCC(n2c(=O)[nH]c3ccccc32)CC1)c1ccc(F)cc1	false (0)
Cc1cc(C(C#N)c2ccc(Cl)cc2)c(Cl)cc1NC(=O)c1cc(I)cc(I)c1O (stereo unspecified)	false (0)
O=C1NC(=O)C(C(CC(=O)c2ccccc2)c2ccccc2)C(=O)N1 (stereo unspecified)	true (1)
COc1ccc(C(CN(C)C)C2(O)CCCCC2)cc1 (stereo unspecified)	false (0)
COc1cc2c(c(OC)c1OC)-c1ccc(O)c(=O)cc1C(NC(C)=O)CC2 (stereo unspecified)	true (1)
COc1ccccc1CC(=O)N1CCN(Cc2cnnn2-c2ccccc2F)CC1	false (0)
CN1C2CCC1CC(OC(=O)C(CO)c1ccccc1)C2 (stereo unspecified)	true (1)
COc1cc2c(cc1OC)C1CC(=O)C(CC(C)C)CN1CC2 (stereo unspecified)	true (1)
CCC1(c2c[nH]cn2)Cc2ccccc2C1.Cl	false (0)
O=c1[nH]c2ccccc2n1CCCN1CCC(n2c(=O)[nH]c3cc(Cl)ccc32)CC1	false (0)
CC12CCC3C(CCC4CC(O)CCC43C)C1CCC2=O (stereo unspecified)	false (0)
O=C(O)c1nn(Cc2ccc(Cl)cc2Cl)c2ccccc12	false (0)
CCN(CC)CCNC(=O)C(O)(c1ccccc1)c1ccccc1	false (0)
COc1ccc(CNCCc2c[nH]c3ccccc23)cc1C	false (0)
CC12CCC3C(CCC4CC(=O)CCC43C)C1CCC2=O (stereo unspecified)	true (1)
CCCC(=O)c1ccc(N2CCN(C)CC2)c(F)c1	false (0)
CCC1(C)CC(CCNCc2ccccc2)(c2ccc(C)cc2)CCO1 (stereo unspecified)	false (0)
COc1cc2c(cc1O)CC1c3c(cc(O)c(OC)c3-2)CCN1C (stereo unspecified)	false (0)
Br.CN1C2CC(OC(=O)C(CO)c3ccccc3)CC1C1OC12 (stereo unspecified)	true (1)

---

- Tested on: RAW-Dual (murine macrophage reporter line)
- assayProcedure: IRF reporter (Lucia luciferase) activity fold change vs agonist alone; higher = enhanced IRF activity
- appliedConditions: modulator concentration 10 µM; agonist: LPS 0.1 ug/mL

compound	IRF reporter
CN1C(=O)NC(=O)C(=Cc2ccc([N+](=O)[O-])o2)C1=O	1.24
CC12CCC3C(CCC4CC(=O)CCC43C)C1CCC2=O (centres undefined)	1.23
CC(=O)Nc1ccc(C(=O)NCC#CCN(C)C)cc1	1.17
COc1ccc(CCNCc2ccc(OC)c(OC)c2OC)cc1OC	1.01
O=C1NC(=O)C(=Cc2cccn2-c2ccc(Br)cc2)C(=O)N1	0.91
Cc1noc(C)c1CC(=O)N1CCCSCC1CN1CCCC1 (centres undefined)	1.09
CC(O)(CS(=O)(=O)c1ccc(F)cc1)C(=O)Nc1ccc(C#N)c(C(F)(F)F)c1 (centres undefined)	1.05
CC12CCC3C(CCC4CC(O)CCC43C)C1CCC2O (centres undefined)	1.13
CCn1cc(C(=O)O)c(=O)c2c(N)c(F)c(N3CCNCC3)c(F)c21	1.47
O=C(O)COc1cc(Cl)c(Cl)cc1Cl	1.37
O=C1NC(=S)NC(=O)C1=Cc1ccc(OCc2ccc(F)cc2)c(Cl)c1	1.13
COc1ccc(CCNCc2cccc3ccccc23)cc1OC	1.32
Cl.Clc1ccc(C(OCCN2CCCCC2)c2ccccc2)cc1 (centres undefined)	1.25
O=C1NC(=O)C(=CNc2ccccc2C(F)(F)F)C(=O)N1	1.21
Cc1ccc(-c2nn(-c3ccccc3)cc2C=C2C(=O)NC(=O)NC2=O)o1	1.42
CC12CC1(C)C(=O)N(c1cc(Cl)cc(Cl)c1)C2=O (centres undefined)	1.11
COc1ccc(C(CN(C)C)C2(O)CCCCC2)cc1 (centres undefined)	1.11
CCCC(=O)c1ccc(N2CCNCC2)c(F)c1	1.4
Cc1ccccc1N1C(=O)C(=Cc2ccc(-c3ccc(C(=O)O)c(Cl)c3)o2)C(=O)NC1=S	1.24
CCNc1nc(Cl)nc(NC(C)C)n1	1.33
CC(C)c1ccc2c(c1O)CCC1C3=C(CCC21C)C(=O)OC3 (centres undefined)	1.11
COc1ccc2c(c1)[nH]c1c(C)nccc12	0.653
Cc1cc(OC(=O)C2CCCCC2)c2c3c(c(=O)oc2c1)CCC3	1.29
Fc1ccc(CNCCc2c[nH]c3ccccc23)cc1	1.1

---

- Test system: RAW-Dual (murine macrophage reporter line)
- assayProcedure: viability score (confluency relative to resting cells, overnight) (fraction); higher = more viable, active = viable (0.7 or more)
- appliedConditions: modulator concentration 10 µM
Labels: t for active, f for inactive

compound	assayedSystem	classLabel
Cc1ccccc1C(=O)Nc1cc(Cl)c([N+](=O)[O-])cc1Cl	RAW-Dual (murine macrophage reporter line)	t
CCCC(=O)c1ccc(N2CCN(C)CC2)c(F)c1	RAW-Dual (murine macrophage reporter line)	t
COC12CC(COC(=O)c3cncc(Br)c3)CN(C)C1Cc1cn(C)c3cccc2c13 (stereo not drawn)	RAW-Dual (murine macrophage reporter line)	t
COc1ccc(CCNCc2ccc3ccccc3c2)cc1OC	RAW-Dual (murine macrophage reporter line)	t
Fc1ccc(CNCCc2c[nH]c3ccccc23)cc1	RAW-Dual (murine macrophage reporter line)	f
COc1ccc(CNCCc2c[nH]c3ccccc23)cc1C	RAW-Dual (murine macrophage reporter line)	f
Cc1ccc(-c2nn(-c3ccccc3)cc2C=C2C(=O)NC(=O)NC2=O)o1	RAW-Dual (murine macrophage reporter line)	t
CC(C)c1ccc2c(c1O)CCC1C3=C(CCC21C)C(=O)OC3 (stereo not drawn)	RAW-Dual (murine macrophage reporter line)	t
CCOc1cc(C=C2N=C(c3cccc(C)c3)OC2=O)ccc1OC(=O)Cc1ccccc1	RAW-Dual (murine macrophage reporter line)	t
COc1ccc(C(CN(C)C)C2(O)CCCCC2)cc1 (stereo not drawn)	RAW-Dual (murine macrophage reporter line)	t
Nc1ccncc1	RAW-Dual (murine macrophage reporter line)	t
CCC1(C)CC(CCNCc2ccccc2)(c2ccc(C)cc2)CCO1 (stereo not drawn)	RAW-Dual (murine macrophage reporter line)	f
CC12CCC3C(CC=C4CC(O)CCC43C)C1CC(=Cc1cccc(F)c1)C2=O (stereo not drawn)	RAW-Dual (murine macrophage reporter line)	t
O=c1[nH]c2ccccc2n1CCCN1CCC(n2c(=O)[nH]c3cc(Cl)ccc32)CC1	RAW-Dual (murine macrophage reporter line)	t
CC(=O)OC1CCC2(C)C(CCC3C4CCC(=O)C4(C)CCC32)C1 (stereo not drawn)	RAW-Dual (murine macrophage reporter line)	t
Cc1cc(C(C#N)c2ccc(Cl)cc2)c(Cl)cc1NC(=O)c1cc(I)cc(I)c1O (stereo not drawn)	RAW-Dual (murine macrophage reporter line)	f
CC1=C(O)C(=O)C=C2C1=CC=C1C2(C)CCC2(C)C3CC(C)(C(=O)O)CCC3(C)CCC12C (stereo not drawn)	RAW-Dual (murine macrophage reporter line)	f
CN1C(=O)NC(=O)C(=Cc2cc(Br)cc(Cl)c2O)C1=O	RAW-Dual (murine macrophage reporter line)	t
O=C1NC(=O)C(=Cc2cc(Br)ccc2OCc2ccc(Cl)cc2Cl)C(=O)N1	RAW-Dual (murine macrophage reporter line)	t
NNC(=O)c1ccccc1	RAW-Dual (murine macrophage reporter line)	t
COc1ccc(CCNCc2ccc3ccccc3c2)cc1	RAW-Dual (murine macrophage reporter line)	f
Cc1cc(C(=O)N2C3CCC2c2cncnc2C3)c(C)o1 (stereo not drawn)	RAW-Dual (murine macrophage reporter line)	t
CCn1cc(C(=O)O)c(=O)c2c(N)c(F)c(N3CCNCC3)c(F)c21	RAW-Dual (murine macrophage reporter line)	t

---

- System: RAW-Dual (murine macrophage reporter line)
- assayProcedure: NF-kB reporter (SEAP) activity fold change vs agonist alone; higher = enhanced NF-kB activity
- appliedConditions: modulator concentration 10 µM; agonist: LPS 0.1 ug/mL
Consider the following compounds and their measured NF-kB reporter readings.

compound	NF-kB reporter
CC(=O)OC1CCC2(C)C(CCC3C4CCC(=O)C4(C)CCC32)C1 (stereo unspecified)	1.06
O=c1[nH]c2ccccc2n1CCCN1CCC(n2c(=O)[nH]c3cc(Cl)ccc32)CC1	1.14
COC(=O)c1ccc(N2C(=O)NC(=O)C(=Cc3ccc(OCc4ccccc4F)cc3)C2=O)cc1	1.04
COC12CC(COC(=O)c3cncc(Br)c3)CN(C)C1Cc1cn(C)c3cccc2c13 (stereo unspecified)	1.01
CCC1(c2cccc(O)c2)CCCCN(C)C1.Cl (stereo unspecified)	0.99
COC(=O)C1C2C(=O)N(c3ccccc3)C(=O)C12c1ccc(Cl)cc1 (stereo unspecified)	1.11
CN1C2CCC1CC(OC(=O)[C@H](CO)c1ccccc1)C2 (stereo partly specified)	0.961
COc1ccc2c(c1)[nH]c1c(C)nccc12	0.885
COc1ccc(C(CN(C)C)C2(O)CCCCC2)cc1.Cl (stereo unspecified)	1.06
CC(=O)Nc1ccc(C(=O)NCC#CCN(C)C)cc1	0.879
Cc1cccc(-n2c(C)nc3ccccc3c2=O)n1	0.827
